Source: ChEMBL document CHEMBL1139975

# runDescription: Half life in rat at 2 mg/kg, iv and 10 mg/kg, po
# Type: ADME, organism-based
# testParameters: in vivo
quantityMeasured: half-life

Give the measured half-life of COc1ccccc1CN1Cc2cc(OC(F)(F)F)ccc2C1=N .
2 h

###

# runDescription: Clearance in rat at 2 mg/kg, iv and 10 mg/kg, po
# Format: ADME, organism-based
# testParameters: in vivo
quantityMeasured: clearance (mL/min/kg)
Reply with just the number (in mL/min/kg).

Which clearance value is on record for COc1ccccc1CN1Cc2cc(OC(F)(F)F)ccc2C1=N ?
66

###

# measuredOn: Glutamate receptor ionotropic, NMDA 2B (Homo sapiens, UniProt Q05586+Q13224)
# Sequence (Q13224 whole entry, one chain of several): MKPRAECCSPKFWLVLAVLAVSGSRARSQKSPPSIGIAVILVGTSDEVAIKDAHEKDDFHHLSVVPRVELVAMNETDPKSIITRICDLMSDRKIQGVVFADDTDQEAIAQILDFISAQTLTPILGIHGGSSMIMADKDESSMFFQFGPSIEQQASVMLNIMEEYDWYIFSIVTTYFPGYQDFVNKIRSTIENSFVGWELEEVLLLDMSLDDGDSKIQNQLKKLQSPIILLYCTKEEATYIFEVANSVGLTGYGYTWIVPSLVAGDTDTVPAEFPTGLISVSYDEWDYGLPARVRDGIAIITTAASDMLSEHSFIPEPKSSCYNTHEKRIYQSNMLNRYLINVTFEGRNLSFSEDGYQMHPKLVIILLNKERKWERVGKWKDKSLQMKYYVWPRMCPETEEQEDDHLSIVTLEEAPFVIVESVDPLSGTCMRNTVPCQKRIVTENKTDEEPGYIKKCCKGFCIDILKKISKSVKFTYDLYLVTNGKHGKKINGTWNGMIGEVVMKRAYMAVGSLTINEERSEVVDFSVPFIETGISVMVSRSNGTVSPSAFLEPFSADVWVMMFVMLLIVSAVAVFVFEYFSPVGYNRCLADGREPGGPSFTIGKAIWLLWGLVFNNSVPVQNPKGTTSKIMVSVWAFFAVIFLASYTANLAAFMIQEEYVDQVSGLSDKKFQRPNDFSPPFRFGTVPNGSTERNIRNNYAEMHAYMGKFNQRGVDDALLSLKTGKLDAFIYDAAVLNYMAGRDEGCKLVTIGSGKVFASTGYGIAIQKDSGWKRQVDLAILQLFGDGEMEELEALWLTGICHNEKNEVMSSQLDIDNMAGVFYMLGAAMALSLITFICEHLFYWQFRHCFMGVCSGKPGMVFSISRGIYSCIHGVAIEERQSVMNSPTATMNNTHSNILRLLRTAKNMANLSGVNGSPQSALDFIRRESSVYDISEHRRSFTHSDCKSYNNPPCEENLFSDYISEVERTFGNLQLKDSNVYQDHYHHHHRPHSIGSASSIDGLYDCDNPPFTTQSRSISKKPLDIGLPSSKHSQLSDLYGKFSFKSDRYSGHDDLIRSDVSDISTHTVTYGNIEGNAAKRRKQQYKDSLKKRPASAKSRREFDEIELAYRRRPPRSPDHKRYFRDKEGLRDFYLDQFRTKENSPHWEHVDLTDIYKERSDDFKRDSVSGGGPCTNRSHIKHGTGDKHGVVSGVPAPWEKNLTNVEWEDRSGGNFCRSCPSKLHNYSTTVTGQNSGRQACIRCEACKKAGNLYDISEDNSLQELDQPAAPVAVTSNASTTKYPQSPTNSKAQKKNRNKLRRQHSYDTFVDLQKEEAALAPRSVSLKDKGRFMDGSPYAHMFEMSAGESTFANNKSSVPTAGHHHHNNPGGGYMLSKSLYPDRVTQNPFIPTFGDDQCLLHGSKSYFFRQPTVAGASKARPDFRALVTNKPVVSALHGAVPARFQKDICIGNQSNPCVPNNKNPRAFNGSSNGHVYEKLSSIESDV
# runDescription: Binding affinity to NMDA NR2B receptor
pKi: −log10 of the molar value.
// label = y if pKi is not less than 7, otherwise n

Determine whether measured pKi meets or exceeds 7 for FC(F)(F)Oc1ccc(C2=NCC(c3ccccc3OC(F)(F)F)N2)cc1Cl (stereo unspecified)
n

Is reported pKi greater than or equal to 7 here: OC1CN=C(c2ccc(OC(F)(F)F)cc2)NC1c1ccccc1 (stereo unspecified)
n

State whether the measured pKi reaches 7, counting equality as reaching it, for Cc1cc(C)cc(CN2Cc3cc(OC(F)(F)F)ccc3C2=N)c1
y

Record FC(F)(F)Oc1ccc(C2=NCCCC(c3ccccc3)N2)cc1 (stereo unspecified) ; criterion: pKi no lower than 7. Met?
n

State whether the measured pKi reaches 7, counting equality as reaching it, for FC(F)(F)Oc1ccc(C2=NC(c3cccc(Cl)c3)CN2)cc1 (stereo unspecified)
n
